Hey, just so you know, these numbers are from BindingDB's records for doi:10.1021/acs.biochem.6b00786.

Study target: Nitric oxide synthase oxygenase [E25A,E26A,I218V,E316A] (Bacillus subtilis, UniProt O34453, E25A/E26A/E316A/I218V)
Protocol notes: bBiDomain assay
pIC50: −log10 of the molar value.

- Smiles structure: "Cc1cc(N)nc2ccccc12"
  pIC50: 4.27

---

Study target: Nitric oxide synthase oxygenase [E25A,E26A,E316A] (Bacillus subtilis, UniProt O34453, E25A/E26A/E316A)
Sequence (O34453 whole entry E25A/E26A/E316A): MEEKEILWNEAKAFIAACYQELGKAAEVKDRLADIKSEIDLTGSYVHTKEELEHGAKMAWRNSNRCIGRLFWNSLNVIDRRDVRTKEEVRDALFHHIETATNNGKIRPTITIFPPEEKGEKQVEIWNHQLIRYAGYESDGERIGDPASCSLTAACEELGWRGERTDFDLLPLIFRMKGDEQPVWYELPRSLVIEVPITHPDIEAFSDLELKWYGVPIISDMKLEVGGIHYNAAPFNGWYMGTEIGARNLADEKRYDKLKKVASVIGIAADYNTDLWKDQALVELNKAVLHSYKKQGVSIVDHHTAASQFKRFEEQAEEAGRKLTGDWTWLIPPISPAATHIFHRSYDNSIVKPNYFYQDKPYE
Protocol notes: bBiDomain assay
pIC50: −log10 of the molar value.
Observation type: pIC50

- Smiles structure: "Cc1cc(N)nc2ccccc12"
  Observation type: "pIC50"
  Obs value: 4.44
